target: mGluR5 receptors (Rattus norvegicus, UniProt P31424); construct: Primary astrocyte cultures are prepared from cortices of newborn rats; endogenous in cells; host or cells: primary cortical astrocytes from Sprague-Dawley rat pups (2-4 d old); assay: Cytosolic calcium studies with astrocytes (FLIPR), functional assay of mGluR5 receptors; assay type: cell-based; conditions: Table A1, positive modulators, fixed concentration of quisqualate (normally 10-30 nM), read-out: rEC50
Sequence (P31424 21-1203): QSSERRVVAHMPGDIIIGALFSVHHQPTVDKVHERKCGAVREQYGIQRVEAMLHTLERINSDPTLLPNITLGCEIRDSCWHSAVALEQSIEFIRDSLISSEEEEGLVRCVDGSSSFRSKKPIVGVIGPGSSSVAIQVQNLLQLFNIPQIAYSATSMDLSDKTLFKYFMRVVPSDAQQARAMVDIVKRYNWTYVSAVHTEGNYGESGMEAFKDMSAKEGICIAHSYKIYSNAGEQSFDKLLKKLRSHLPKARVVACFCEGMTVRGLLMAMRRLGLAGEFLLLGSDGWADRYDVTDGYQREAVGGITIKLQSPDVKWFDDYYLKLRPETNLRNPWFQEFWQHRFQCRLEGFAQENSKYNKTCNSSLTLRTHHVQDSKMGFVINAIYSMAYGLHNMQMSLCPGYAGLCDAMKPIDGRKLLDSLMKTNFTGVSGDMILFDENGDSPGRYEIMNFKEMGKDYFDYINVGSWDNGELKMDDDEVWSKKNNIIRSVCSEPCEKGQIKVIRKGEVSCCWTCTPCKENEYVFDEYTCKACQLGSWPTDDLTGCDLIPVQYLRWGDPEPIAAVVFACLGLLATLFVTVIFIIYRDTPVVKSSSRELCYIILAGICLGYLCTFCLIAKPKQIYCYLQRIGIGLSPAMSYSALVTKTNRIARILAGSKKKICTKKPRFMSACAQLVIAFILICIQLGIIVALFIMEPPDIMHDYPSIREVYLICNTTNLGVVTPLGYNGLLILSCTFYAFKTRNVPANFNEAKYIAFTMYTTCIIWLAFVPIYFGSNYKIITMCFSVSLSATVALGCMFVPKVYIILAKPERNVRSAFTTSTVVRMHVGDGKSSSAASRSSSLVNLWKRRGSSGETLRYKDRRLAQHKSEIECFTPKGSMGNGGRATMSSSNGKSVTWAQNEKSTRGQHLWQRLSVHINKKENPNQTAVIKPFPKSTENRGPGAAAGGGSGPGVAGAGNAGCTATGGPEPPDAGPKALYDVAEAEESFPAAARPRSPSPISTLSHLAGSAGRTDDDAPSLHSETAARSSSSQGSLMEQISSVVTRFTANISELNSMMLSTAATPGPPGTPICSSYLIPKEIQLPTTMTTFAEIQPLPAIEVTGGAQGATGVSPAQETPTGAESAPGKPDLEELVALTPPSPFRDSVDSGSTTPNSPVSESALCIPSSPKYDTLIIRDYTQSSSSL
Answer each item with its documented EC50.
Answers are plain numbers, in nM.

Solved cases (5 shown):
[[record]]
compound = "O=C1OC2(CCCc3ncc(C#Cc4ccccc4)cc32)CN1C1CC1 (racemic) [Example 74]"
recordedvalue = 10.1

[[record]]
compound = "CCCN1CCO[C@@H]2c3cc(C#Cc4cccc(F)c4)cnc3CC[C@@H]21 (racemic) [Example 19]"
recordedvalue = 323

[[record]]
compound = "CCCN1CC2(CCCc3ncc(C#Cc4ccccc4)cc32)OC1=O (racemic) [Example 82]"
recordedvalue = 233

[[record]]
compound = "COC(=O)N1CC2CCc3ncc(C#Cc4ccccc4)cc3C2C1 (stereo not drawn) [Example 30]"
recordedvalue = 256

[[record]]
compound = "COC(=O)N1CC[C@H]2c3ncc(C#Cc4cccc(F)c4)cc3CC[C@H]21 [Example 72]"
recordedvalue = 27.3


Here are 4 compounds. What values of EC50 were reported for them?
1. O=S(=O)(N1CCCCCC1)N1CCc2ncc(C#Cc3ccccc3)cc2C1 [Example 56]
2. CN(C)S(=O)(=O)N1CCc2ncc(C#Cc3ccccc3)cc2C1 [Example 52]
3. CCCN1CCO[C@@H]2c3cc(C#Cc4ccccc4F)cnc3CC[C@@H]21 (racemic) [Example 18]
4. COC(=O)N1CC2CCc3ncc(C#Cc4cccc(F)c4)cc3C2C1 (stereo not drawn) [Example 31]

Ans.
296
83.1
613
261

Here are 8 compounds. What values of EC50 were reported for them?
1. CC(C)(C)C(=O)N1CCc2ncc(C#Cc3ccccc3)cc2C1 [Example 34]
2. CN1CC2(CCCc3ncc(C#Cc4ccccc4)cc32)OC1=O (racemic) [Example 11]
3. FC(F)(F)CN1CCO[C@@H]2c3cc(C#Cc4ccccc4)cnc3CC[C@@H]21 (racemic) [Example 24]
4. COC1CCCc2ncc(C#Cc3ccccc3)cc21 (single isomer, unassigned) [Example 2]
5. CC(C)COC(=O)N1CCc2ncc(C#Cc3ccccc3)cc2C1 [Example 41]
6. O=C(N1CCc2ncc(C#Cc3ccccc3)cc2C1)N(CC(F)(F)F)CC(F)(F)F [Example 49]
7. CC(C)(C)[S+]([O-])N1CCc2ncc(C#Cc3ccccc3)cc2C1 (racemic) [Example 37]
8. COC(=O)N1CC[C@H]2c3ncc(C#Cc4ccccc4)cc3CC[C@H]21 [Example 71]

Ans.
67.9
58.6
134
12.5
4.36
11.8
508
32.7

Qu. Requested read-out: EC50. Entry: O=C1OC2(CCCc3ncc(C#Cc4ccccc4)cc32)CN1c1ccccc1 (racemic) [Example 12]
Ans. 856
